These measurements were taken from patent US20220064322A1.

Readings of Top for the listed binders
Molecular target: T1, cynomolgus CD73 on the cell surface (293T/17-cynoCD73 cells) (cynomolgus (Macaca fascicularis), UniProt P21589 27-547 (human entry))
T1 construct: it is an ecto-domain with a His tag
T1 chain: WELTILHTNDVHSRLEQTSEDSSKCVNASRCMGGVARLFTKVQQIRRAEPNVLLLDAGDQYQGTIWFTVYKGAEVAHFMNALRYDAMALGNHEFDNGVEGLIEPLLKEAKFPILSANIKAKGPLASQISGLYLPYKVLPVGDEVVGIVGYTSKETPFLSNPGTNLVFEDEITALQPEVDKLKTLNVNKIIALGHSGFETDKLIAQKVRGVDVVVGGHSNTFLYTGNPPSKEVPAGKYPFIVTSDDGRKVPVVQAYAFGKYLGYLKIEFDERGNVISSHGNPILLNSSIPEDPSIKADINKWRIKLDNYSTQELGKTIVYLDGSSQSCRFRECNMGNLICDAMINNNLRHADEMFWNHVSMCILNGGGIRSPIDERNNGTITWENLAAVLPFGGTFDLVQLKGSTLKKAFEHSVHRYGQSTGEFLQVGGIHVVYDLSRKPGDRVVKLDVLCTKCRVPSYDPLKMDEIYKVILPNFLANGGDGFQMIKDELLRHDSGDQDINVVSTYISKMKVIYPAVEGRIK
Assay: flow cytometry on 293T/17-Cyno CD73 cells, curve fit
Record the value in fluorescence, omitting the unit from your answer.

* JB94H2L1 (antibody, human IgG1, kappa, V domains shown, Humanized antibody of the 94 clone, human IgG1 / kappa) VH: QVQLVQSGAEVKKPGASVKVSCKASGYTFTSYWMHWVRQRPGQGLEWMGYINPSSGYTKSNQKFKDRVTLTADTSTSTAYMELSSLRSEDTAVYYCGRWLLSAWFAYWGQGTLVTVSS VL: DIQMTQSPSSLSASVGDRVTITCKASQDINTYLSWFQQKPGKAPKSLIYRSNILVDGVPSRFSGSGSGQDFTLTISSLQPEDFAIYYCLQYDDFPYTFGQGTKLEIKR | 82

API: the following record is the query input.
Query: Item under review: JB24H2L1 (antibody, human IgG1, kappa, V domains shown, Humanized antibody of JB24Chi, human IgG1 / kappa) VH: QVQLVQSGAEVKKPGASVKMSCKASGYTFTDYNMHWVRQSPGKSLEWIGYIKPHNAGTTYNPKFEGRATLTVDTSASTAYMELSSLRSEDTAVYYCVRSDFLYWYFDVWGQGTTVTVSS VL: DIQMTQSPSSLSASVGDRVTITCTASSSVSSSYLHWYQQKPGKAPKLLIYSTSNLASGVPSRFSGSGSGTDFTLTISSLQPEDFATYYCHQYHRSPLTFGAGTKLEIKR . Reported Top?
Result: 36.5
